# System: P. aeruginosa
# experiment: AK assay 384-well format, Prestwick library screening
# Format: cell-based, Pseudomonas aeruginosa
# details: Pseudomonas aeruginosa, 3 h; planktonic P. aeruginosa; 50 μM final drug concentration; 384-well; cutoff for positive-scoring molecules 3-fold increase; read-out: AK-based Prestwick Library Screening Results: P. aeruginosa (increase in extracellular AK activity)
Where a name gives a salt, the structure may show the parent alone.
compounds and their reported fold induction at 50 µM
measuredMetric: fold induction at 50 µM

- CCCCN1CCCCC1C(=O)Nc1c(C)cccc1C (stereo not drawn) [Bupivacaine hydrochloride]: 1.2
- CN(C)CCCN1c2ccccc2CCc2ccccc21 [Imipramine hydrochloride]: 1.1
- CCN(CC)C(=O)N1CCN(C)CC1 [Diethylcarbamazine citrate]: 1.1
- O=C(COc1ccc(Cl)cc1)N1CCN(Cc2ccc3c(c2)OCO3)CC1 [Fipexide hydrochloride]: 1
- CCn1cc(C(=O)O)c(=O)c2cc(F)c(N3CCNCC3)cc21: 31.3
- Cc1cccc(N(C)C(=S)Oc2ccc3ccccc3c2)c1 [Tolnaftate]: 1
- CCC[C@@H]1C[C@@H](C(=O)N[C@@H]([C@H]2O[C@H](SC)[C@H](O)[C@@H](O)[C@H]2O)[C@@H](C)O)N(C)C1 [Lincomycin hydrochloride]: 1.2
- CNC(=C[N+](=O)[O-])NCCSCc1ccc(CN(C)C)o1 [Ranitidine hydrochloride]: 1.3
- O=c1n(CCCN2CCN(c3cccc(Cl)c3)CC2)nc2ccccn12 [Trazodone hydrochloride]: 1.2
- CN(C)CCOC(c1ccccc1)c1ccccc1 [Diphenhydramine hydrochloride]: 1
- CN(C(=O)CN(CCO)CC(=O)N(C)C(C)(C)Cc1ccccc1)C(C)(C)Cc1ccccc1: 1
- CSc1ccc2c(c1)N(CCC1CCCCN1C)c1ccccc1S2 (stereo not drawn) [Thioridazine hydrochloride]: 1.1
- CC1=C(CC(=O)O)c2cc(F)ccc2/C1=C\c1ccc([S+](C)[O-])cc1 (stereo not drawn): 0.8
- CCc1cccc2c3c([nH]c12)C(CC)(CC(=O)O)OCC3 (stereo not drawn): 1.5
- O=C(CCCN1CCC2(CC1)C(=O)NCN2c1ccccc1)c1ccc(F)cc1: 1.2
- CCN(CC)CCCC(C)Nc1c2ccc(Cl)cc2nc2ccc(OC)cc12 (stereo not drawn) [Quinacrine dihydrochloride dihydrate]: 0.9
- CO/N=C(\C(=O)N[C@@H]1C(=O)N2C(C(=O)O)=C(COC(C)=O)CS[C@H]12)c1csc(N)n1 [Cefotaxime sodium salt]: 10
- Cc1ccc(C)c(OCCCC(C)(C)C(=O)O)c1: 1.2

###

# Test system: S. aureus strain USA300-0114
# experiment: AK assay 384-well format, Prestwick library screening
# Type: cell-based, Staphylococcus aureus
# details: Staphylococcus aureus, USA300, 3 h; 50 μM final drug concentration; planktonic; cutoff for positive 3-fold increase; read-out: AK-based Prestwick Library Screening Results, S. aureus (fold increase in extracellular AK activity)
Structures can show the parent of a compound that is named as a salt.
molecules and their reported fold induction at 50 µM
measuredMetric: fold induction at 50 µM

- NC(Cn1ccc(=O)c(O)c1)C(=O)O (centres unmarked) [Mimosine]: 1.4
- Fc1ccc(C(OCCN2CCN(CCCc3ccccc3)CC2)c2ccc(F)cc2)cc1 [GBR 12909 dihydrochloride]: 1.5
- COc1cc(N)c(Cl)cc1C(=O)NC1CCN(Cc2ccccc2)CC1 [Clebopride maleate]: 1.2
- CO[C@@]1(NC(=O)C2SC(=C(C(N)=O)C(=O)O)S2)C(=O)N2C(C(=O)O)=C(CSc3nnnn3C)CS[C@@H]21 (some centres unmarked) [Cefotetan]: 2.5
- CC(C)(Sc1cc(C(C)(C)C)c(O)c(C(C)(C)C)c1)Sc1cc(C(C)(C)C)c(O)c(C(C)(C)C)c1 [Probucol]: 0.6
- C[C@H]1[C@H]2CC[C@H]3[C@@H]4CC=C5C[C@@H](N(C)C)CC[C@]5(C)[C@H]4CC[C@]23CN1C [Conessine]: 1.2
- C=C[C@H]1C[N@@]2CC[C@H]1C[C@@H]2[C@@H](O)c1ccnc2ccccc12 [Cinchonine]: 1.6
- CC1=CC(=O)c2ccccc2C1=O [Menadione]: 1.4
